This collection of values is drawn from ChEMBL document CHEMBL1123558.

# Test system: Mus musculus
# experimentSummary: Maximally tolerated dose was measured after ip administration of compound, 24 hr after tumor implantation.
# Type: functional
Tick label 1 if MTD is 90 µM/kg or greater. Tick label 0 if MTD is less than 90 µM/kg.

Qu. Check if MTD >= 90 µM/kg (inclusive). Item: "c1ccc(P(c2ccccc2)P(c2ccccc2)c2ccccc2)cc1"
Ans. label 1

Qu. Check if MTD >= 90 µM/kg (inclusive). Item: "c1coc(P(CCP(c2ccco2)c2ccco2)c2ccco2)c1"
Ans. label 1

Qu. Check if MTD >= 90 µM/kg (inclusive). Item: "c1ccc(P(CCP(c2ccccc2)c2ccccc2)CCP(c2ccccc2)c2ccccc2)cc1"
Ans. label 0

Qu. Check if MTD >= 90 µM/kg (inclusive). Item: "CN(C)c1ccc(P(CCP(c2ccc(N(C)C)cc2)c2ccc(N(C)C)cc2)c2ccc(N(C)C)cc2)cc1"
Ans. label 1

Qu. Check if MTD >= 90 µM/kg (inclusive). Item: "c1ccc(P(CCCP(c2ccccc2)c2ccccc2)c2ccccc2)cc1"
Ans. label 0

New cases:
Qu. Check if MTD >= 90 µM/kg (inclusive). Item: "c1ccc(CP(CCP(Cc2ccccc2)Cc2ccccc2)Cc2ccccc2)cc1"
Ans. label 0

Qu. Check if MTD >= 90 µM/kg (inclusive). Item: "C(=C\P(c1ccccc1)c1ccccc1)/P(c1ccccc1)c1ccccc1"
Ans. label 1
